// half-life lookup, one value per entry
experiment notes: Pharmacokinetic (PK) assay in mice
Type: in vivo
test parameters: mouse, plasma; IV 1 mg/kg, CD-1 mice
Include the unit right after the number.

[in] Query (compound): COC[C@H](C(=O)Nc1cc(Cl)c(-c2ccc(S(=O)(=O)C3CC3)cc2)c(Cl)c1)c1ccc(S(C)(=O)=O)cc1 (single isomer, unassigned) ; field requested: half-life
[out] 3.56 h

[in] Lookup CCS(=O)(=O)c1ccc(C(COC)C(=O)Nc2cc(Cl)c(-c3ccc(S(=O)(=O)C4CC4)cc3)c(Cl)c2)cc1 (stereo not drawn) [Example 16]
[out] 3.88 h

[in] Please answer likewise for COCC(C(=O)Nc1cc(Cl)c(-c2ccc(S(=O)(=O)C3CC3)cc2)c(Cl)c1)c1ccc(S(C)(=O)=O)cc1 (stereo not drawn)
[out] 4.85 h
